- target-under-test: affinity purified β2GPI-dependent antiphospholipid antibody
- assay-method-text: Competitive inhibition ELISA: recombinant β2GPI proteins compete for antibody binding to coated full length recombinant β2GPI
- Set-up: species or system human
- settings: Ab 6644; read-out: 50% (concentration to give 50% inhibition)
measurement-type: IC50 (µM)
Kindly answer with a numeric value in µM, unit omitted.

Task item: Quick one: IC50 of 123--: recombinant β2GPI deletion mutant with domains 1, 2, 3 (protein) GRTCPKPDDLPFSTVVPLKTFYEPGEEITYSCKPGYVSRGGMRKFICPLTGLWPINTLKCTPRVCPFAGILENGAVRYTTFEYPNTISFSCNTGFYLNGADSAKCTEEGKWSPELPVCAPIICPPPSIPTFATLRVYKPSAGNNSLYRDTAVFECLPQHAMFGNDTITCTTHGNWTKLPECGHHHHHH ?
Reply: 0.7

Task item: Try 1234-: recombinant β2GPI deletion mutant with domains 1, 2, 3, 4 (protein) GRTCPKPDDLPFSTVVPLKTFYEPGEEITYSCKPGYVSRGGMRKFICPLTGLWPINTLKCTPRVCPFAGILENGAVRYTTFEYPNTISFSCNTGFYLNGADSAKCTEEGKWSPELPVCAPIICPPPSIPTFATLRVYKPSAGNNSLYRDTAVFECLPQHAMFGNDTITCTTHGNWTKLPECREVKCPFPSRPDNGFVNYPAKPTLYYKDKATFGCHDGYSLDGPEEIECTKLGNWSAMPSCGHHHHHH next.
Reply: 8
